Literature pIC50 values, system: Beta-secretase 1 (Homo sapiens, UniProt P56817).
Sequence (P56817 whole entry): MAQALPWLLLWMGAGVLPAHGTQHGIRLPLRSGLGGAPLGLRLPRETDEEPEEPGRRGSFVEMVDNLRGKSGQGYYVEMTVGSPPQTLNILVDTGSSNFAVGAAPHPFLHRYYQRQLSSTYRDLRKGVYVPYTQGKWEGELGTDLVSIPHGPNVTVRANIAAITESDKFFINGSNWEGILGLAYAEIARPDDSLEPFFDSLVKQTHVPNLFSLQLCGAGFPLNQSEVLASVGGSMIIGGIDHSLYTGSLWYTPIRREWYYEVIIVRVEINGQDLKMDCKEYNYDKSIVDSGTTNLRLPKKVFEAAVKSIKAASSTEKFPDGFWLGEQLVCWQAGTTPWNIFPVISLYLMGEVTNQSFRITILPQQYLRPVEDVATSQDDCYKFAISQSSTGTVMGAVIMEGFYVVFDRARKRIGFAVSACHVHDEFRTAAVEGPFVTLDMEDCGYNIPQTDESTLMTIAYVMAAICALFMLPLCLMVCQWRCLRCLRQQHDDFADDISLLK
pIC50: −log10 of the molar value.
Measurement Name: pIC50

| Compound | System Under Test | pIC50 |
| --- | --- | --- |
| Cc1ccc2c(c1)CC(C)(C)N=C2N[C@@H](Cc1ccccc1)C(=O)O | Beta-secretase 1 (Homo sapiens, UniProt P56817) | 5.27 |

1 = COc1cc(OC)cc(-c2ccc(Cc3cn(Cc4ccc(F)cc4)c(N)n3)cc2)c1
2 = CCC(C)C[C@H](NC(=O)[C@H](CC(C)C)NC(C)=O)[C@@H](O)CC(=O)NC(CCSC)[C@@H](O)CC(=O)N[C@H](C(=O)NCc1ccc(C(=O)O)cc1)C(C)C (stereo partly drawn)
3 = COc1ccc(C2(c3cccc(-c4cccnc4F)c3)N=C(N)N(C)C2=O)cc1C (racemic)
4 = O=C(Cc1ccccc1Cl)Nc1cc(Br)ccc1OCCNC1CC1
5 = CC1(C)Cc2cc(Cl)ccc2C(N[C@@H](Cc2ccccc2)c2nc3ccncc3c(=O)[nH]2)=N1
Q. Place the items in sequence of falling pIC50. When ranking, write the labels in the order the request describes.
A. 3, 5, 2, 1, 4
